Overview of reported pIC50 across a group of compounds:
STUDY SYSTEM: SHP-2 enzyme (Met1-Leu525) (Homo sapiens (Human), UniProt Q06124)
Sequence (Q06124 1-525): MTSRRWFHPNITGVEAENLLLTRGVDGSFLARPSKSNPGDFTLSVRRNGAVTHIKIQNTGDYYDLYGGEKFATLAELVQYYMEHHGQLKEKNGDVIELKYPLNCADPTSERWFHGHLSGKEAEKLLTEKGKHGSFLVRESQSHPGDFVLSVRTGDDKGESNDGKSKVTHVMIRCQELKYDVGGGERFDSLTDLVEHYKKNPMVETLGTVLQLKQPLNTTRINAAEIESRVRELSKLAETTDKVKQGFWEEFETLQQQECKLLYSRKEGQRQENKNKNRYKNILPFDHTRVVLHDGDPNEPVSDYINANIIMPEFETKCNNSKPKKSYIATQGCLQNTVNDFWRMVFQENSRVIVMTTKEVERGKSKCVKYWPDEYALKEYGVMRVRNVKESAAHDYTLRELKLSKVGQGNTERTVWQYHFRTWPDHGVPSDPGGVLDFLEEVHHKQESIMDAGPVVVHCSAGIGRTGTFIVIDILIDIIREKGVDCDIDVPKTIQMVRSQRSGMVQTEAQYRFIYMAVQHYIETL
METHOD SUMMARY: SHP2 inhibition enzymatic assay
Assay type: biochemical
REPORTED CONDITIONS: 0.5 nM SHP-2 activated by 500 nM IRS1 peptide, 75 μM DiFMUP substrate; read-out: SHP2wt-IC50
pIC50: −log10 of the molar value.

Illustrative cases are given below, each with its answer.
compound=NC[C@]1(c2ccccc2F)[C@@H]2CCN(c3cnc4c(-c5ccc(F)c6ncccc56)c[nH]c4n3)C[C@@H]21 measured_metric=pIC50 observed_result="> 6.30"
compound=Cc1cc([C@@]2(CN)[C@@H]3CCN(c4cnc5c(-c6cc(F)cc7ncccc67)n[nH]c5n4)C[C@@H]32)no1 measured_metric=pIC50 observed_result="5.52 to 6.30"
compound="NCC1(c2ccccc2F)C2CCN(c3cnc4c(-c5cccc(Cl)c5Cl)n[nH]c4n3)CC21 (stereo not shown)" measured_metric=pIC50 observed_result="> 6.30"

# context switch: different compound, same pIC50
**Query** What does the data say about its pIC50? Entry: NC[C@]1(c2ccccc2F)[C@@H]2CCN(c3cnc4c(-c5ccc(C(N)=O)cc5Cl)n[nH]c4n3)C[C@@H]21
**Result** > 6.30
